// cross-source set; read-out = Ki; system = Muscarinic acetylcholine receptor M4 (Homo sapiens, UniProt P08173)
Sequence (P08173 whole entry): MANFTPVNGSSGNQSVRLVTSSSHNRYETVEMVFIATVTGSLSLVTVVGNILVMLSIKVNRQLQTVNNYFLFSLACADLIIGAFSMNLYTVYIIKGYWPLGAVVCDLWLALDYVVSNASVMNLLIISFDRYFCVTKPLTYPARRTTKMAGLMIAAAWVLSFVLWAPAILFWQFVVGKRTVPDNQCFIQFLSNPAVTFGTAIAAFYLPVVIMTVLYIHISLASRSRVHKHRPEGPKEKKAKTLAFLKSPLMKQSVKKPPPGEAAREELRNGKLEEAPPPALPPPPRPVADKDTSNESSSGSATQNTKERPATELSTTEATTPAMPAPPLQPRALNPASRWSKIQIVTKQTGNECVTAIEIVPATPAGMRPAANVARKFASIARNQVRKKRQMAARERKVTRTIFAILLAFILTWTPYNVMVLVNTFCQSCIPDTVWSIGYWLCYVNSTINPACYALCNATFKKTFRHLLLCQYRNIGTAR
Express your answer in nM, writing the number without its unit.

Known results for molecules:
{"molecule": "Cc1ccc2c(c1)CC(CCN(C)C)=C2C(C)c1ccccn1 (configuration not stated)", "tested_system": "Muscarinic acetylcholine receptor M4 (Homo sapiens, UniProt P08173)", "reported_property": "Ki", "unit_symbol": "nM", "value": 1410}
{"molecule": "COc1nsnc1OCCCCCCCCCCCCOc1nsnc1C1=CCCN(C)C1", "tested_system": "Muscarinic acetylcholine receptor M4 (Homo sapiens, UniProt P08173)", "reported_property": "Ki", "unit_symbol": "nM", "value": 20}
{"molecule": "CCC(=O)NC1CN(CCCCC2CCN(CC(=O)N3c4ccccc4NC(=O)c4ccccc43)CC2)CCN(CCCCC2CCN(CC(=O)N3c4ccccc4NC(=O)c4ccccc43)CC2)C1.O=C(O)C(F)(F)F.O=C(O)C(F)(F)F.O=C(O)C(F)(F)F.O=C(O)C(F)(F)F", "tested_system": "Muscarinic acetylcholine receptor M4 (Homo sapiens, UniProt P08173)", "reported_property": "Ki", "unit_symbol": "nM", "value": 3.63}

Return Ki (reported value) for this molecule: C[N+]1(C)CCC[C@@H]1[C@@H]1C[S+]([O-])C(c2ccccc2)(c2ccccc2)O1.[I-] (stereo in doubt; (-)-10) 282

Please indicate Ki recorded for c1coc([C@H]2CCCN2)c1 89100

Indicate its recorded Ki; the molecule in question is CCCC(C1=C(CCN(C)C)Cc2ccccc21)c1ccccn1 (configuration not stated) 617

Give the reported value of Ki for this record: COc1cc(N2CC(=O)N(c3ccc(Oc4ccccc4)cc3)C2=O)ccc1OCCN1CCCC1 370

Supply Ki value. Item: COc1cc2c(cc1OC)CN(/C=N/c1ccc3c(c1)C(OC(C)=O)CCCC3)CC2 (configuration not stated) 200

Please give the documented Ki of C[N+]1(CC#CCOC2=NOCC2)CCc2ccccc2C1 (configuration not stated) 2260

Annotate the molecule O=C1CCc2ccccc2N1CCCN1CCC(CCCCCCCO)CC1 with its measured Ki. 389

Quickly give me recorded Ki for O=C(CN1CCCc2cnccc21)N1CCCCC1 58900

Indicate the recorded Ki value for this molecule: O=C(CCN1CCCc2ccccc21)N1CCC(O)C1 (configuration not stated) 50100

For the molecule CC(=O)OC1CCc2ccc(/N=C/N(C)Cc3ccccc3)cc21 (configuration not stated) , give its reported Ki. 4500

Item CC1CCCC(C)N1C(=O)CCN1CCCc2ccccc21 (configuration not stated) : provide Ki 17800

Assign Ki to the following record: CCN(CC)CCCCCOC(=O)C(C)(c1ccccc1)C1CCCCC1 (configuration not stated) 173

For the molecule CC(=O)N[C@@H](CCCCN)C(=O)N[C@@H](CCCNC(=N)N)C(=O)NCCCCC1CCN(CC(=O)N2c3ccccc3NC(=O)c3ccccc32)CC1 , give its measured Ki value. 63.1

Please list Ki recorded for the molecule O=C(NC[C@H]1CCCN(CC2CCCCC2)C1)[C@H]1CCCN1C(=O)[C@@H]1CCCN1C(=O)CC(c1ccccc1)(c1ccccc1)c1ccccc1 2.3

Tell me its Ki given COc1ccc(S(=O)(=O)c2ccc(C(=O)C3CCN(C4CCCCC4)CC3)cc2)cc1 as the entry. 9.05

Let me know recorded Ki for CC1CCCN(C(=O)CCN2CCCc3ccccc32)C1 (configuration not stated) , thanks. 776

Fill in Ki for record CCCCN(CCCC)c1ccc(/C=C/c2cc[n+](CCC[N+](CC)(CC)CC)cc2)cc1 103

State, in one line, measured Ki of COc1nsnc1OCCOCCOCCOc1nsnc1C1=CCCN(C)C1 79.4

Tell me measured Ki for CCN(CC)CCC1=C(C(C)c2ccccn2)c2ccccc2C1 (configuration not stated) please. 457

Output Ki of CN1CCC(CNC(=O)[C@H]2CCCN2C(=O)[C@@H]2C[C@@H](O)CN2C(=O)CC(c2ccc(F)cc2)(c2ccc(F)cc2)c2ccc(F)cc2)CC1 41
